From: ChEMBL document CHEMBL1154578

Test system: Staphylococcus aureus
Test: Antimicrobial activity against Staphylococcus aureus ATCC 29218
Assay type: functional
Details: ATCC 29213, in the assay text read “ATCC 29213” for “ATCC 29218”
# MIC per record follows
Hi! Could you send only the number? It should be in µg/mL, unit omitted.

// below: answered compounds
>>> recorded_result("CC(COS(=O)(=O)O)C(=O)CC[C@@H](C)[C@H]1CC[C@H]2[C@@H]3[C@H](O)C[C@H]4C[C@@H](NCCCNCCCCN)CC[C@]4(C)[C@H]3CC[C@]12C (stereo partly drawn)")
8
>>> recorded_result("CC(C)[C@@H](CC[C@@H](C)[C@H]1CC[C@H]2[C@@H]3[C@H](O)C[C@H]4C[C@@H](NCCCNCCCCN)CC[C@]4(C)[C@H]3CC[C@]12C)OS(=O)(=O)O [SQUALAMINE]")
1

q: So what does the record say about MIC for CC(C)[C@@H](CC[C@@H](C)[C@H]1CC[C@H]2[C@@H]3[C@H](O)C[C@H]4C[C@@H](NCCCNCCCCNCCCN)CC[C@]4(C)[C@H]3CC[C@]12C)OS(=O)(=O)O [TRODUSQUEMINE] ?
a: 1
